- Tested on: PDGF-R
- protocolDescription: PDGF-R Assay (cellular ELISA, U1242 cells)
- Assay type: cell-based
- Design: concentration or dose not given beside the values
- details: protocol P.119
quantityName: PDGF Kinase % Inhibition (P.119) (%)
Numbers only, in %.

{"molecule": "CCOc1ccc(C=C2C(=O)Nc3ccc(S(=O)(=O)Nc4ccc(C(F)(F)F)cc4)cc32)cc1 [10737/E02]", "PDGF Kinase % Inhibition (P.119) / %": 12.9}

Lab note: each molecule below needs its PDGF Kinase % Inhibition (P.119) filled in.
1. CNS(=O)(=O)c1ccc2c(c1)C(=Cc1ccc3ccccc3c1)C(=O)N2 [10737/D08]
2. Cc1c(Br)ccc2c1C(=Cc1ccc(O)cc1Cl)C(=O)N2 [10739/C06]
3. Cc1c(Br)cc(Br)c2c1C(=Cc1cc(F)ccc1F)C(=O)N2 [10737/H04]

3.0
33.8
−21.3

Lab note: each molecule below needs its PDGF Kinase % Inhibition (P.119) filled in.
1. COc1ccc(C=C2C(=O)Nc3ccc(I)cc32)cc1C [10739/B02]
2. Cc1c(Br)ccc2c1C(=Cc1ccoc1)C(=O)N2 [10739/C10]
3. Cc1c(Br)cc(Br)c2c1C(=Cc1ccccc1F)C(=O)N2 [10736/H08]
4. O=C1Nc2ccc(CCCl)cc2C1=Cc1ccoc1 [10739/G10]
5. Cc1ccc(C=C2C(=O)Nc3ccc(CCCl)cc32)c(C)c1 [10737/G03]
6. CCOc1ccc(C=C2C(=O)Nc3ccc(I)cc32)cc1 [10737/B02]
7. O=C1Nc2ccc(CCCl)cc2C1=Cc1ccccc1F [10736/G08]
8. COc1ccc(C=C2C(=O)Nc3ccc(Br)c(C)c32)cc1C [10739/C02]

5.2
−18.6
−17.9
−0.6
21.7
−28.9
−9.2
10.6

Lab note: each molecule below needs its PDGF Kinase % Inhibition (P.119) filled in.
1. O=C1Nc2ccc(CCCl)cc2C1=Cc1cccc(F)c1 [10736/G07]
2. Cc1c(Br)ccc2c1C(=Cc1cc(O)c(O)c(O)c1)C(=O)N2 [10739/C07]
3. O=C1Nc2c(Br)cc(Br)cc2C1=Cc1cccc(OCc2ccccc2)c1 [10739/A03]
4. O=C1Nc2ccc(I)cc2C1=Cc1ccc(Oc2ccccc2)cc1 [10737/B09]
5. O=C1Nc2ccc(S(=O)(=O)Nc3ccc(C(F)(F)F)cc3)cc2C1=Cc1ccc(O)cc1Cl [10739/E06]
6. Cc1ccc(C)c(C=C2C(=O)Nc3ccc(Br)c(C)c32)c1 [10737/C07]
7. COc1ccc(C=C2C(=O)Nc3ccc(S(=O)(=O)Nc4ccc(C(F)(F)F)cc4)cc32)cc1C [10739/E02]

1: −14.8; 2: 44.5; 3: 15.4; 4: −14.1; 5: 72.7; 6: 8.6; 7: 18.3
